- Tested on: MCF7 breast
- TEST: NCI tumour cell line growth inhibition, 48 h

>  <SMILES_REPR>
CN(CSc1ccc(Cl)cc1)c1ccc(CSc2ccc(Cl)cc2)cc1

>  <TGI>
18.5 µM

$$$$
>  <SMILES_REPR>
COc1ccccc1NC(=O)C(=O)Cc1cnc2ccccc2n1

>  <TGI>
> 100 µM

$$$$
>  <SMILES_REPR>
CCCCCCCc1cscc1-c1cscc1Br

>  <TGI>
> 100 µM

$$$$
>  <SMILES_REPR>
CCOC(=O)Nc1ccc2c(c1)N(C(=O)CCN(CC)CC)c1ccccc1S2

>  <TGI>
> 94.3 µM

$$$$
>  <SMILES_REPR>
CCOC(=O)c1cn(CC)c2ccc3ccsc3c2c1=O

>  <TGI>
> 100 µM

$$$$

###

- System: T-47D breast
- TEST: NCI tumour cell line growth inhibition, 48 h
TGI values for the compounds below.

>  <COMPOUND>
Cn1nc(-c2ccccc2)c2c(-c3ccccc3)c3cc(Cl)ccc3nc21

>  <SYSTEM_NAME>
T-47D breast

>  <UNITS_SYMBOL>
µM

>  <QUALIFYING_SIGN>
>

>  <TGI>
100

$$$$
>  <COMPOUND>
CCCCCCCCCCCCCCCC(=O)Nc1ccn(C2CCC(COP(=O)(O)OCC3OC(n4cc(F)c(=O)[nH]c4=O)CC3OC(C)=O)O2)c(=O)n1 (centres undefined)

>  <SYSTEM_NAME>
T-47D breast

>  <UNITS_SYMBOL>
µM

>  <QUALIFYING_SIGN>
>

>  <TGI>
66.5

$$$$
>  <COMPOUND>
O=C1C=CC(=O)N1c1ccc(I)cc1

>  <SYSTEM_NAME>
T-47D breast

>  <UNITS_SYMBOL>
µM

>  <QUALIFYING_SIGN>
=

>  <TGI>
72.3

$$$$
>  <COMPOUND>
O=[N+]([O-])/C=C/c1cc2ccc3ccccc3c2[nH]1

>  <SYSTEM_NAME>
T-47D breast

>  <UNITS_SYMBOL>
µM

>  <QUALIFYING_SIGN>
=

>  <TGI>
3.89

$$$$

###

- Test system: PC-3 prostate
- TEST: NCI tumour cell line growth inhibition, 48 h

>  <COMPOUND>
Fc1cccc(C2SCc3nc4cc5ccccc5cc4n32)c1 (stereo not drawn)

>  <TGI>
> 100 µM

$$$$
>  <COMPOUND>
OCC1OC(n2cnc3c(SCc4ccccc4)ncnc32)C(O)C1O (stereo not drawn)

>  <TGI>
> 100 µM

$$$$
>  <COMPOUND>
Cc1cnc2c(c1)C(=O)N(c1ccc([N+](=O)[O-])cc1)S2(=O)=O

>  <TGI>
> 100 µM

$$$$

###

- Tested on: SK-MEL-28 melanoma
- TEST: NCI tumour cell line growth inhibition, 48 h
Each entry below lists one item and its recorded TGI value.
TEST_READOUT: TGI

>  <MOLECULE>
CCC(c1ccc(OC)cc1)C1NC(=S)NC1=O (configuration not stated)

>  <VALUE_REPORTED>
> 50 µM

$$$$
>  <MOLECULE>
NC(CO)c1ccc(OCc2ccccc2)cc1 (configuration not stated)

>  <VALUE_REPORTED>
> 100 µM

$$$$
>  <MOLECULE>
CCCCOC(=O)NC(Nc1ccc(S(=O)(=O)Nc2ncccn2)cc1)(C(F)(F)F)C(F)(F)F

>  <VALUE_REPORTED>
> 100 µM

$$$$
>  <MOLECULE>
CS(=N)(=O)CCC(N)P(=O)(O)O (configuration not stated)

>  <VALUE_REPORTED>
> 100 µM

$$$$
>  <MOLECULE>
NCCCNc1nc2ccc(Cl)cc2c2c(=O)c3cc(F)ccc3sc12

>  <VALUE_REPORTED>
24.2 µM

$$$$
>  <MOLECULE>
CC(Cc1cccc2c1Nc1ccccc1S2)N(C)CCO (configuration not stated)

>  <VALUE_REPORTED>
> 100 µM

$$$$
>  <MOLECULE>
CC(=O)N=c1ccc2nc(N)nn(O)c-2c1

>  <VALUE_REPORTED>
> 100 µM

$$$$
